Observed pKi values for UniProt Q16790 are listed in what follows.
Scale: negative log10 of molar concentration, which is what pKi denotes.

| compound.structure.string | pKi |
| --- | --- |
| CO[C@H]1O[C@H](Cn2cc(CNC(=O)c3ccc(S(N)(=O)=O)cc3)nn2)[C@@H](O)[C@H](O)[C@H]1O | 6.69 |

// query Tell me pKi of CC(=O)OC[C@H]1O[C@@H](n2cc(CNC(=O)c3ccc(S(N)(=O)=O)cc3)nn2)[C@H](OC(C)=O)[C@@H](OC(C)=O)[C@@H]1OC(C)=O when tested on UniProt Q16790.
// result 6.37

// query Look up UniProt Q16790 data: pKi of CC(=O)OC[C@H]1O[C@@H](n2cc(CNC(=O)c3ccc(S(N)(=O)=O)cc3)nn2)[C@H](OC(C)=O)[C@@H](OC(C)=O)[C@H]1OC(C)=O , then report it.
// result 7.12

// query // fetch pKi for NS(=O)(=O)c1ccc(C(=O)OCc2cn([C@@H]3O[C@H](CO)[C@H](O)[C@H](O)[C@H]3O)nn2)cc1 ; system: UniProt Q16790
// result 7.19

// query Give pKi; test system UniProt Q16790; compound C#CCOC(=O)c1ccc(S(N)(=O)=O)cc1
// result 6.98

// query Please respond with reported pKi (system UniProt Q16790) for NS(=O)(=O)c1ccc(C(=O)NCc2cn([C@@H]3O[C@H](CO)[C@@H](O)[C@H](O)[C@H]3O)nn2)cc1 .
// result 6.35

// query Give pKi only, for NS(=O)(=O)c1ccc(C(=O)OCc2cn([C@@H]3OC[C@@H](O)[C@@H](O)[C@@H]3O)nn2)cc1 , using UniProt Q16790 data.
// result 7.02
